Biological target: Cyclooxygenase
Assay: Cyclooxygenase inhibitory effect (14C-arachidonic acid to prostaglandin E2, seminal vesicular gland microsomes)
Conditions: prostaglandin E2 by thin layer chromatography
Method: (1) Cyclooxygenase Inhibitory effect This assay was carried out by the method described in Russell J. Taylor et al., Biochem. Pharmacol., 25, 2479-2484 (1976). ^14 C-arachidonic acid was reacted with seminal vesicular gland microsomes and the test drugs at various concentrations over a predetermined period of time and the obtained prostaglandin E2 was separated by thin layer chromatography. The radioactivity of prostaglandin E2 was determined by liquid scintillation counter. […]
OBSERVABLE: IC50 (nM)

>>> val("COc1ccc(-c2noc(CC(=O)NCCN3CCN(CCCCCCCCCCO)CC3)c2-c2ccc(OC)cc2)cc1")
121

(I) CCCCCCCCCCN1CCN(C(=O)CNC(=O)Cc2onc(-c3ccc(OC)cc3)c2-c2ccc(OC)cc2)CC1
(II) COc1ccc(-c2noc(CC(=O)NC(CN3CCN(CCCCCCCCCCO)CC3)c3ccccc3)c2-c2ccc(OC)cc2)cc1 (stereo not drawn)
Exam item: I'd appreciate it if you could identify which of I and II has the greater IC50. # respond with the chosen item's label
Marked response: II
(II: 146 nM, I: 66 nM)
